biological target: USP1/UAF1 (Homo sapiens (Human)); experiment: Deubiquitination assay for USP1/UAF1 activity (ubiquitin-rhodamine 110); type: biochemical; settings: Table 4; 0.05 nM USP1/UAF1, 150 nM ubiquitin-rhodamine
Sequence (O94782 whole entry): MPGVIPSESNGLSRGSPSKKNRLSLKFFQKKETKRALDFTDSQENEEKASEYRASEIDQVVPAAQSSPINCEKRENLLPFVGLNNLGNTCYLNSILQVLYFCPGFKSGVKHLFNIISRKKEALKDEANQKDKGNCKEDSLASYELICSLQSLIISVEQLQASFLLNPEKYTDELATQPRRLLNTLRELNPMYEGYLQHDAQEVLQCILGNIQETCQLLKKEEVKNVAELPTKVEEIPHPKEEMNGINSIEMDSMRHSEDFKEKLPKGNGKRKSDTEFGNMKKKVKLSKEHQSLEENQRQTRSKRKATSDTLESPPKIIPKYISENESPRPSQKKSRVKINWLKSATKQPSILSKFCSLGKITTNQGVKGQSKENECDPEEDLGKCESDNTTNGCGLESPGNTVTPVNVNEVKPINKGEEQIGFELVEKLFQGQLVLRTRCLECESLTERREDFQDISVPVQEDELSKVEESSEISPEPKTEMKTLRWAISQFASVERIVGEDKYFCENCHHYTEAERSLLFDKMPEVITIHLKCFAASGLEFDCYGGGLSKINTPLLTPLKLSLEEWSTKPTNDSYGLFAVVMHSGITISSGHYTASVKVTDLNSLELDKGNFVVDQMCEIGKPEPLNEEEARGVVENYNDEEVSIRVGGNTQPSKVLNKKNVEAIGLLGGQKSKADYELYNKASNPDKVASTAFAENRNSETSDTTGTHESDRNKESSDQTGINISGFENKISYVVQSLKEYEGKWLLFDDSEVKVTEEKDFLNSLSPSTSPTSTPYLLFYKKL
Sequence (Q8TAF3 whole entry partner): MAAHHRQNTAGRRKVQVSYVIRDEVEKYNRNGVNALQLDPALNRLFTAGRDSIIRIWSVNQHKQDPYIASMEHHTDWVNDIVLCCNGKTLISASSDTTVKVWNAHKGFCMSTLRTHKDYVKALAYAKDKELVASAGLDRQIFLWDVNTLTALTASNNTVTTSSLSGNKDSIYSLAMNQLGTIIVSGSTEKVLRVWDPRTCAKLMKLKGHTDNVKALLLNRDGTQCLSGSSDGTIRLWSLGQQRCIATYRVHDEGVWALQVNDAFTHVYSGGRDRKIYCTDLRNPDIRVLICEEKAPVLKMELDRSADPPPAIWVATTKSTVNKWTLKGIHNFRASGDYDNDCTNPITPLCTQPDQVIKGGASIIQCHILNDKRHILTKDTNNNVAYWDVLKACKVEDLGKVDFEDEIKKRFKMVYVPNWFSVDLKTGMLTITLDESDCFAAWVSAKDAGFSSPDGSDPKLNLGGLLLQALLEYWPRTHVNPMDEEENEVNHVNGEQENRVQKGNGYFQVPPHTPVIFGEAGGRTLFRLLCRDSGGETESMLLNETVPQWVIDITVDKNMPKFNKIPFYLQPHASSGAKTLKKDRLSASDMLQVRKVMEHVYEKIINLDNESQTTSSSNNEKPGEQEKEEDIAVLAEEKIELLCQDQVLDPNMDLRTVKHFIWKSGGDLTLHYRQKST
test.readout: IC50

Incoming: Reported IC50, compound COc1ncnc(C2CC2)c1-c1ncc2c(OC)nn([C@@H](C)c3ccc(-c4nc(C(F)(F)F)c(Br)n4C)cc3)c2n1 [drawing 802] : ____
Outgoing: 10 to 100 nM

Incoming: Reported IC50, compound CCn1cc(C(F)(F)F)nc1-c1ccc(Cn2nc(SC)c3cnc(-c4c(OC)ncnc4C4CC4)nc32)cc1 [drawing 800] : ____
Outgoing: 10 to 100 nM

Incoming: Reported IC50, compound CCn1cc(C(F)(F)F)nc1-c1ccc([C@H](C)n2nc(OC)c3cnc(-c4c(OC)ncnc4C4CC4)nc32)cc1 [drawing 813] : ____
Outgoing: 10 to 100 nM

Incoming: Reported IC50, compound CCn1cc(C(F)(F)F)nc1-c1ccc(Cn2nc(N3CCC3)c3cnc(-c4c(OC)ncnc4C4CC4)nc32)cc1 [drawing 810] : ____
Outgoing: 10 to 100 nM

Incoming: Reported IC50, compound COc1ncnc(C)c1-c1ncc2ncn(Cc3ccc(-n4nc(C(F)(F)F)cc4C)cc3)c2n1 : ____
Outgoing: > 200 nM

Incoming: Reported IC50, compound COc1ncnc(C2CC2)c1-c1ncc2ncn(Cc3ccc(-n4nc(C(F)(F)F)cc4C)cc3)c2n1 [drawing 830] : ____
Outgoing: 100 to 200 nM

Incoming: Reported IC50, compound COc1ncnc(C2CC2)c1-c1ncc2nc(C3CC3)n(Cc3ccc(-n4nc(C(F)(F)F)cc4C)cc3)c2n1 [drawing 822] : ____
Outgoing: 10 to 100 nM

***
Incoming: Reported IC50, compound COc1ncnc(C2CC2)c1-c1ncc2nc(C(C)C)n(Cc3ccc(-c4nc(C(F)(F)F)cn4C(C)C)cc3)c2n1 [drawing 805] : ____
Outgoing: 10 to 100 nM

Values compiled from patent US11485736B2.
